# target.or.system: A3 human recombinant receptor (Homo sapiens)
# Sequence (P0DMS8 1-318): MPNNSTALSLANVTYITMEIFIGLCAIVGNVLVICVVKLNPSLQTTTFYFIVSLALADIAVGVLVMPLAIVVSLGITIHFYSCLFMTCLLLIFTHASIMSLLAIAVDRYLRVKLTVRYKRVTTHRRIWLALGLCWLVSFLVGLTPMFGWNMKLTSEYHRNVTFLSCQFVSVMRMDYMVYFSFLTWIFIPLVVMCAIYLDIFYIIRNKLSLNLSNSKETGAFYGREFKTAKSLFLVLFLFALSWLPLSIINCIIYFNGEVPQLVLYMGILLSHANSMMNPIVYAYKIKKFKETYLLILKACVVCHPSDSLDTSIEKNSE
# assay.notes: AequoScreen adenosine A3 receptor assay, antagonist mode (luminescence, against reference agonist IB-MECA)
# measurement.setup: AequoScreen cells expressing A3 human recombinant receptor and Gα16; inhibition of IB-MECA at EC80; duplicate determinations at 8 concentrations
pIC50: −log10 of the molar value.
property.name: pIC50

[P] CNC(=O)[C@@]12CO[C@@H]([C@H](n3cnc4c(NCc5cccc(I)c5)ncnc43)O1)[C@@H]2N=[N+]=[N-]
[Q] CNC(=O)[C@@]12CN[C@@H]([C@H](n3cnc4c(NCc5cccc(I)c5)ncnc43)O1)[C@@H]2O
q: Given the two records P and Q , choose the one whose pIC50 value is lower. Respond using the label that marks the chosen record.
a: P
(P: 6.09, Q: 7.92)

====

# target.or.system: A3 human recombinant receptor (Homo sapiens)
# assay.notes: AequoScreen adenosine A3 receptor assay, antagonist mode (luminescence, against reference agonist IB-MECA)
# measurement.setup: AequoScreen cells expressing A3 human recombinant receptor and Gα16; inhibition of IB-MECA at EC80; duplicate determinations at 8 concentrations
property.name: IC50 (nM)

substance.smiles: CNC(=O)[C@@]12CN[C@@H]([C@H](n3cnc4c(N)ncnc43)O1)[C@@H]2O
target.or.system: A3 human recombinant receptor (Homo sapiens)
IC50 / nM: 173

[a] OC[C@@]12CO[C@@H]([C@H](n3cnc4c(NCc5cccc(I)c5)ncnc43)O1)[C@@H]2O
[b] CNC(=O)[C@@]12CO[C@@H]([C@H](n3cnc4c(NCc5cccc(Br)c5)ncnc43)O1)[C@@H]2O
q: Determine, for a and b , which has the greater value of IC50. Response format: the label of the selected entry.
a: b

====

# target.or.system: A3 human recombinant receptor (Homo sapiens, UniProt P0DMS8)
# assay.notes: AequoScreen adenosine A3 receptor assay, antagonist mode (luminescence, against reference agonist IB-MECA)
# measurement.setup: AequoScreen cells expressing A3 human recombinant receptor and Gα16; inhibition of IB-MECA at EC80; duplicate determinations at 8 concentrations
pIC50: −log10 of the molar value.
property.name: pIC50

Some solved cases for reference:
compound: CNC(=O)[C@]12CO[C@@H]([C@H](n3cnc4c(NCc5cccc(I)c5)nc(Cl)nc43)O1)[C@@H]2O [SPN0175]
target.or.system: A3 human recombinant receptor (Homo sapiens, UniProt P0DMS8)
pIC50: 6.41

compound: OCC12CNC(C(n3cnc4c(NCc5cccc(I)c5)ncnc43)O1)C2O (single isomer, unassigned) [SPN0234]
target.or.system: A3 human recombinant receptor (Homo sapiens, UniProt P0DMS8)
pIC50: 8.09

compound: OC[C@@]12CO[C@@H]([C@H](n3cnc4c(NCc5cccc(I)c5)nc(Cl)nc43)O1)[C@@H]2O [SPN0174]
target.or.system: A3 human recombinant receptor (Homo sapiens, UniProt P0DMS8)
pIC50: 6.68

[I] OCC12CNC(C(n3cnc4c(NCc5cccc(I)c5)ncnc43)O1)C2O (single isomer, unassigned) [SPN0240]
[II] CNC(=O)[C@@]12CO[C@@H]([C@H](n3cnc4c(NCc5cccc(I)c5)ncnc43)O1)[C@@H]2N [SPN0195]
q: Which item exceeds the other in pIC50, I or II ? Respond with the label that goes with your answer.
a: I
